Biological target: PheRS (Pseudomonas aeruginosa, UniProt Q9I0A3+Q9I0A4)
Sequence (Q9I0A3 whole entry): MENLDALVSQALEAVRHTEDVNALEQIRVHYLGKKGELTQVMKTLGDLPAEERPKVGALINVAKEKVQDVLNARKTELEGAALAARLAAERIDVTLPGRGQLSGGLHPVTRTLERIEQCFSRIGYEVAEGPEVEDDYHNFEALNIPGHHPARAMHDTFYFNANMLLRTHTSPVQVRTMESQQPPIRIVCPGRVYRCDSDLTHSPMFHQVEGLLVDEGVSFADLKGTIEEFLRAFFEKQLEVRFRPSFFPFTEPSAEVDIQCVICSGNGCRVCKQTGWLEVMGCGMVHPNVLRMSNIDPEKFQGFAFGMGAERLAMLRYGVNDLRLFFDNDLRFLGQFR
Sequence (Q9I0A4 whole entry): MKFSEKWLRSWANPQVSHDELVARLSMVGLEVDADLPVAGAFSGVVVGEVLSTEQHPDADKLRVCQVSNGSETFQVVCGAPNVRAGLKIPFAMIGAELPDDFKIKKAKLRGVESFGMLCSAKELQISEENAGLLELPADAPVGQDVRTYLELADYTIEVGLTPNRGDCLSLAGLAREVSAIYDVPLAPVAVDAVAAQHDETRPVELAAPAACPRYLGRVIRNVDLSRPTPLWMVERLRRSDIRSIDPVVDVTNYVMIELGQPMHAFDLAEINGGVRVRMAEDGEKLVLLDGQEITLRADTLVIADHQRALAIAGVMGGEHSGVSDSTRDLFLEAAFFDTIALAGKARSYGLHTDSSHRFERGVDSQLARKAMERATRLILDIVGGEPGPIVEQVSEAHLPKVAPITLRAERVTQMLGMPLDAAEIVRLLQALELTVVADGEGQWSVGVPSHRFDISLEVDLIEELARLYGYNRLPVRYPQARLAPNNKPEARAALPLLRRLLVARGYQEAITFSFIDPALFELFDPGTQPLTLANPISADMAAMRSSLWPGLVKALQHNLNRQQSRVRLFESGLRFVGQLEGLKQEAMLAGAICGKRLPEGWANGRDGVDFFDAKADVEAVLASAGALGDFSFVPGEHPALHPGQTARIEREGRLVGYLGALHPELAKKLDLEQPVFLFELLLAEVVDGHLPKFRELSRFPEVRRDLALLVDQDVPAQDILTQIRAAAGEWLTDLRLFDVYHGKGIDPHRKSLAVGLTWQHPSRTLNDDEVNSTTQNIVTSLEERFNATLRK
Experiment: tRNA aminoacylation assay
observable: pIC50
Keep it numeric: pIC50 is minus log10 of the concentration in mol/L.

pIC50 in this record for O=C(N/N=C/c1ccc([N+](=O)[O-])o1)c1cc([N+](=O)[O-])cc([N+](=O)[O-])c1O : 4.22
